- assay system: EphA2 extracellular domain fused to the Fc portion of an antibody (EphA2-Fc)
- Sequence (P29317 whole entry, the tested form may be a part): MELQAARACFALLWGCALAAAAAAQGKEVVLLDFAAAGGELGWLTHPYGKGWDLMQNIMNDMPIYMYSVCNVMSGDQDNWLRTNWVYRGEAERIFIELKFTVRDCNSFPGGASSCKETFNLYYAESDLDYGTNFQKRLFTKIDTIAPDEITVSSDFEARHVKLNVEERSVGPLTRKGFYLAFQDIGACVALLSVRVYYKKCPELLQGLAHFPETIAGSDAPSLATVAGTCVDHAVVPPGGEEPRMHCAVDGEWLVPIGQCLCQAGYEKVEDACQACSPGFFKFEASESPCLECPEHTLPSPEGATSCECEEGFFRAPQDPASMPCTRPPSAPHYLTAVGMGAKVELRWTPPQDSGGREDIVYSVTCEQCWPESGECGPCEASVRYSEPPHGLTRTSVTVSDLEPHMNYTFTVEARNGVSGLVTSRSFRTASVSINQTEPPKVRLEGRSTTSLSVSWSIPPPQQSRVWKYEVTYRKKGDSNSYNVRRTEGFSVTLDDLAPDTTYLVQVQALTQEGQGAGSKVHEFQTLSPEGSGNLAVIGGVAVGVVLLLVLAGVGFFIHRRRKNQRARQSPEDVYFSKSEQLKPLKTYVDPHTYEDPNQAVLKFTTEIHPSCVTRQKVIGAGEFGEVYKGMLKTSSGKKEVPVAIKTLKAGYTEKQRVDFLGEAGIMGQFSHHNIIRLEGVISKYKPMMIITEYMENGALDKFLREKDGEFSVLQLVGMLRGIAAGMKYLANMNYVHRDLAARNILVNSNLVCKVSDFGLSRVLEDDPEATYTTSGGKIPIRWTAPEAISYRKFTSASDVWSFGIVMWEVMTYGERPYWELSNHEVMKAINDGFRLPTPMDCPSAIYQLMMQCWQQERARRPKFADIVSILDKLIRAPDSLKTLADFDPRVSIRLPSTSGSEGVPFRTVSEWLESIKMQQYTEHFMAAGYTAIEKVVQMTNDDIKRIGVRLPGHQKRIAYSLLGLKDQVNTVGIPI
- test description: ELISA, inhibition of ephrinA5-AP binding to immobilized EphA2-Fc
*1 amine or outer side, *2 acyl side, *3 side chain or, on linkers, in order; H or OH if unused. Where no end group is shown, it is not given here. [ ]: non-standard residue; d: D form. Ccam = carbamidomethyl-cysteine, NC(=O)CSC[C@H](N[*:1])C(=O)[*:2]; βAla = NCCC(=O)O
property label: IC50

// worked examples, IC50 included
binder: Lys-linked dimer (C-ter) (also: bond at chain A 15 to a chain's C-terminus) peptide 1: [βAla]WLAYPDSVPYRPKK peptide 2: [βAla]WLAYPDSVPYRPK
IC50: 0.77 nM
//
binder: [Ccam]GAWLAYPDSVPYR [CcamGA-WLA-YR]
IC50: 1400 nM

Here is the next item to consider.
Value of measured IC50 for the entry Click dimer (N-ter) (not fully specified; propargylglycine (Pra) at position 1, joined by a click linkage to KN3 of the other chain; C-terminal amide; azido-lysine (KN3) at position 1, joined by a click linkage to Pra of the other chain; C-terminal amide) peptide 1: KAWLAYPDSVPYRPK peptide 2: XGAWLAYPDSVPYRPK : 0.54 nM
